# protocolText: small-molecule microarray binders of probe aShh, primary screen, biochemical, biotinylated probe, 635/667 nm fluorescence (AID 1114);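 note: probe is biotin-labelled aShh protein from a stem cell growth factor screen; measures binding of labelled protein to compounds printed on the slide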
# settings: higher = more signal
Tag: condition met if measured composite z-score is not below -0.1, condition not met if it is.

>  <compound>
CCOC(=O)[C@H](CC(C)C)NC(=O)CCC1CC(OC(=O)NCc2cccc3ccccc23)CC2(CCCC(COC(=O)NCc3ccccc3)O2)O1 (stereo partly drawn)

>  <category>
condition not met

$$$$
>  <compound>
CCOC(=O)[C@H](Cc1ccccc1)NC(=O)CCC1CC(OC(=O)NCc2cccc3ccccc23)CC2(CCCC(COC(=O)NCCCN3CCCC3=O)O2)O1 (stereo partly drawn)

>  <category>
condition not met

$$$$
>  <compound>
Cc1ccc(S(=O)(=O)N[C@H]2COC(=O)[C@@H](C)COC(=O)[C@H](C)NC(=O)CC=C[C@H]2C)cc1

>  <category>
condition met

$$$$
>  <compound>
CCOC(=O)NN=C1C[C@@H](O)[C@@H](O)[C@@H]2[C@@H]3C(=O)N(Cc4ccccc4)C(=O)[C@@H]3CC[C@@H]12

>  <category>
condition not met

$$$$
>  <compound>
CCOC(=O)CCN1C(=O)[C@H]2[C@H]3[C@H](O)[C@H](O)CC(=NNC(=O)OCC)[C@@H]3CC[C@H]2C1=O

>  <category>
condition not met

$$$$
>  <compound>
CCN1C(=O)[C@H]2[C@H]3[C@H](O)[C@H](O)CC(=NNC(=O)OCc4ccc(OC)cc4)[C@H]3CC[C@H]2C1=O

>  <category>
condition met

$$$$
>  <compound>
CCOC(=O)NN=C1C[C@@H](O)[C@@H](O)[C@@H]2[C@@H]3C(=O)N(Cc4ccc5c(c4)OCO5)C(=O)[C@@H]3CC[C@@H]12

>  <category>
condition met

$$$$
>  <compound>
CC(C)=NOCc1ccc(-c2cn([C@@H]3COC[C@H]3O)nn2)cc1

>  <category>
condition not met

$$$$
>  <compound>
CC(C)CCN1CCc2nc(-c3ccccc3)c3c(c2C1)CO[C@@H](C)C3

>  <category>
condition not met

$$$$
>  <compound>
CO[C@H]1COC(=O)[C@H](C)NC(=O)CC=C[C@@H](C)[C@H](OC)COC(=O)CC=C[C@@H]1C

>  <category>
condition met

$$$$
>  <compound>
C#CCCCON=C1C[C@@H](O)[C@@H](O)[C@@H]2[C@@H]3C(=O)N(C4CCCCC4)C(=O)[C@@H]3CC[C@H]12

>  <category>
condition met

$$$$
>  <compound>
CC(C)=NOC[C@@H](O)COCc1ccco1

>  <category>
condition not met

$$$$
>  <compound>
C=CCN(C(=O)C1N(C(C)(C)CO)C(=O)C2C(C(=O)O)C3C=CC21O3)C(C)(C)C (stereo not drawn)

>  <category>
condition not met

$$$$
